Data provenance: ChEMBL document CHEMBL2424579

experimental-readout: pIC50
Give only the number. pIC50 is defined as minus log10 of concentration in molar units.

Form field: pIC50 recorded for `CCc1nc2c(Cc3ccc(C(=O)NO)cc3)cccc2c(=O)n1CCc1ccccc1` with Cytochrome P450 2C19 (Homo sapiens) (enter value)
5.48

* * *

Tested on: PC-12
method-notes: Induction of neurite outgrowth in rat PC12 cells after 5 days
Assay type: functional, cell-based
cond: PC-12, 120 h
experimental-readout: pEC50
Give only the number. pEC50 is defined as minus log10 of concentration in molar units.

Need pEC50 of `Cc1nc2cc(/C=C/C(=O)NO)ccc2c(=O)n1CCc1ccccc1` , thanks.
5.14

Need pEC50 of `CCc1nc2cc(F)c(/C=C/C(=O)NO)cc2c(=O)n1CCc1ccccc1` , thanks.
5.14

Need pEC50 of `CCc1nc2cc(/C=C/C(=O)NO)ccc2c(=O)n1CCc1ccc(OC)cc1` , thanks.
5.14

Need pEC50 of `O=C(/C=C/c1ccc2c(=O)n(CCc3ccccc3)c(C3CC3)nc2c1)NO` , thanks.
4.98

Need pEC50 of `CC(C)c1nc2cc(/C=C/C(=O)NO)ccc2c(=O)n1CCc1ccccc1` , thanks.
4.94

* * *

study-target: Histone deacetylase 2 (Homo sapiens)
Sequence (Q92769 whole entry): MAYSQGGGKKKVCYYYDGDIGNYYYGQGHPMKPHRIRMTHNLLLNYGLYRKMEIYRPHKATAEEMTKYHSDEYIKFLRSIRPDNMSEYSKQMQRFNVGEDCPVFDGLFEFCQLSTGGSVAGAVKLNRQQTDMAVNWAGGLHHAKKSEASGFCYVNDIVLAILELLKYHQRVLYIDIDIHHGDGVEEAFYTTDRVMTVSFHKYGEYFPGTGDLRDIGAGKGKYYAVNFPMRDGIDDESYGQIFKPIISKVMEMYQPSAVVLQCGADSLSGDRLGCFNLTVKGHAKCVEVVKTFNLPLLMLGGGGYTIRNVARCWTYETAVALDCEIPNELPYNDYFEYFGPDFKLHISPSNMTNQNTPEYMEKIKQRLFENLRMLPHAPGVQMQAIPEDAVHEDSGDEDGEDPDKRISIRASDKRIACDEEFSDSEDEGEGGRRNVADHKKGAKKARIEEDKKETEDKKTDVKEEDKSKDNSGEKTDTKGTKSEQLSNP
method-notes: Inhibition of human recombinant HDAC2 expressed in baculovirus/sf9 cells using RHKKAc as substrate
pIC50: −log10 of the molar value.
experimental-readout: pIC50

Need pIC50 of `Cc1nc2cccc(/C=C/C(=O)NO)c2c(=O)n1-c1ccccc1` , thanks.
< 5.00

Need pIC50 of `Cc1nc2c(/C=C/C(=O)NO)cccc2c(=O)n1-c1ccccc1` , thanks.
< 5.00

Need pIC50 of `CCc1nc2cc(Cl)c(/C=C/C(=O)NO)cc2c(=O)n1CCc1ccccc1` , thanks.
< 4.92

Need pIC50 of `CCc1nc2cc(/C=C/C(=O)NO)ccc2c(=O)n1CCCc1ccccc1` , thanks.
< 4.92

* * *

study-target: Amyloid-beta precursor protein (Homo sapiens, UniProt P05067)
Sequence (P05067 whole entry): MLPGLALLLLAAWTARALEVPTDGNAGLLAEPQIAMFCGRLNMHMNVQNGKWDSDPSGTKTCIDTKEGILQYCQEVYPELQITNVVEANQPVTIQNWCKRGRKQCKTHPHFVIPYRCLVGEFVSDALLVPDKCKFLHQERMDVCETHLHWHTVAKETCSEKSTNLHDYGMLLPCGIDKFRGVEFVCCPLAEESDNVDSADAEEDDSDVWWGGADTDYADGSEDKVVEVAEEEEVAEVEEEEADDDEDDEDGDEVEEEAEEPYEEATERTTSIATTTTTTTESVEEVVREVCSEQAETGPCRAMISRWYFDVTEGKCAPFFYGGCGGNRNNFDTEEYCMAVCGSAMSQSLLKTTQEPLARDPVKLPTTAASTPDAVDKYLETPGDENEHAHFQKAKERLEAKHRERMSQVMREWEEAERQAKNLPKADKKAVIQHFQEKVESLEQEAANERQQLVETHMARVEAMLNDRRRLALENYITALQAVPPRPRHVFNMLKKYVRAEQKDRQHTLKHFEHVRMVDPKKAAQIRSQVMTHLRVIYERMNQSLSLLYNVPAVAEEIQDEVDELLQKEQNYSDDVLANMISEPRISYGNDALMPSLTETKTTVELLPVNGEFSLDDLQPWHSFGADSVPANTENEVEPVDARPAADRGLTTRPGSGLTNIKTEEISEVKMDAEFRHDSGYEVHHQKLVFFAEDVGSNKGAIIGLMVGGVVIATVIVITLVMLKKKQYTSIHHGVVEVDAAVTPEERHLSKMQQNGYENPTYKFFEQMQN
method-notes: Inhibition of amyloid beta aggregation (unknown origin) after 4 hrs by thioflavin S assay in absence of Zn2+
Please respond with reported IC50 for every item in the list.

Form field: IC50 recorded for `Cc1nc2c(/C=C/C(=O)NO)cccc2c(=O)n1-c1ccccc1` with Amyloid-beta precursor protein (Homo sapiens, UniProt P05067) (enter value)
> 50 µM

Form field: IC50 recorded for `O=C(O)CN(CCN(CC(=O)O)CC(=O)O)CC(=O)O` with Amyloid-beta precursor protein (Homo sapiens, UniProt P05067) (enter value)
28.4 µM

Form field: IC50 recorded for `Cc1nc2cc(/C=C/C(=O)NO)ccc2c(=O)n1CCc1ccccc1` with Amyloid-beta precursor protein (Homo sapiens, UniProt P05067) (enter value)
> 50 µM

Form field: IC50 recorded for `Cc1nc2cc(/C=C/C(=O)NO)ccc2c(=O)n1CCc1c[nH]c2ccccc12` with Amyloid-beta precursor protein (Homo sapiens, UniProt P05067) (enter value)
> 50 µM
